Sourced from ChEMBL document CHEMBL4052641

experiment: Inhibition of butter milk xanthine oxidase (unknown origin) assessed as reduction in uric acid formation using xanthine as substrate by double beam spectrophotometric assay
So I've got a bunch of compounds here, and I need their pIC50 values.
Just the number, please; pIC50 means minus log10 of the concentration in mol/L.

## Input Give recorded pIC50. `O=c1c(O)c(-c2ccc(O)c(O)c2)oc2cc(O)cc(O)c12`
## Output 6.40

## Input Give recorded pIC50. `O=c1oc2c(O)ccc(-c3oc4cc(O)cc(O)c4c(=O)c3O)c2s1`
## Output 7.30

###

target: Xanthine dehydrogenase/oxidase (Bos taurus); assay: Inhibition of bovine milk xanthine oxidase assessed using xanthine as substrate after 10 mins by fluorometric assay
Sequence (P80457 whole entry): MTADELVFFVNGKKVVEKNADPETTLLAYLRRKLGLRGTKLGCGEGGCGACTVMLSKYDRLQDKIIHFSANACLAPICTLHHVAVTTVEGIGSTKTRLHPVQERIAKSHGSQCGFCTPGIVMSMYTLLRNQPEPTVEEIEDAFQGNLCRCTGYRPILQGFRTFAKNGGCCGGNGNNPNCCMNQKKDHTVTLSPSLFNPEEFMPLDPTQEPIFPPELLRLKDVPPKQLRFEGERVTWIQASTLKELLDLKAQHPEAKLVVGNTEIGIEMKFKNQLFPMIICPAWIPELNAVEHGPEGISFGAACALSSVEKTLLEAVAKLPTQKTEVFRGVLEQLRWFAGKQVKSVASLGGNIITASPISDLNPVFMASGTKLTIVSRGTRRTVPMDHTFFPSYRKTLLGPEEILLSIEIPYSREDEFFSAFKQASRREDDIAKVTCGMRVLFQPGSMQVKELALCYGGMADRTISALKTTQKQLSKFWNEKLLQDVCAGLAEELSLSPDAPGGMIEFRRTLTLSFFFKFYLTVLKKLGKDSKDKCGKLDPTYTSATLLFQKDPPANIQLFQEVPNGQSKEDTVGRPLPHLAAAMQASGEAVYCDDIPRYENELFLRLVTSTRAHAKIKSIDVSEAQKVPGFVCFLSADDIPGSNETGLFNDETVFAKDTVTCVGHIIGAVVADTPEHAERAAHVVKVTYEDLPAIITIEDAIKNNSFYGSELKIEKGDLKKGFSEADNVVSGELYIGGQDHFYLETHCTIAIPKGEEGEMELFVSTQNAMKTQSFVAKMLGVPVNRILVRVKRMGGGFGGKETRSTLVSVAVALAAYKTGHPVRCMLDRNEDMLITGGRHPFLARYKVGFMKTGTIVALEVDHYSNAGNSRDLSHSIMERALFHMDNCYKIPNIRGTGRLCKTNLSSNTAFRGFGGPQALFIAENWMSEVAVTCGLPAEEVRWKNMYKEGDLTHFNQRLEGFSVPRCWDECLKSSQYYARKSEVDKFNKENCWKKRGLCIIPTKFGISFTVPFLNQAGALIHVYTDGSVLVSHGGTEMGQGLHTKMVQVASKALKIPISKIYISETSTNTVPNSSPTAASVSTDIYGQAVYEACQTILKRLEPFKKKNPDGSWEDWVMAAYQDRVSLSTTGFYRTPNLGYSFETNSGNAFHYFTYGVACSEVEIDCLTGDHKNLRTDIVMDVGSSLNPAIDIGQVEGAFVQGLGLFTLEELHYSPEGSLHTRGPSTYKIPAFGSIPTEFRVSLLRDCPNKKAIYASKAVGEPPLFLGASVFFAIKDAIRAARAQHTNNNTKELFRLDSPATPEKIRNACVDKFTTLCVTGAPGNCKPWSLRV
Readout Name: pIC50
Just the number, please; pIC50 means minus log10 of the concentration in mol/L.

## Input Give recorded pIC50. `O=c1cc(-c2ccc(O)c(O)c2)oc2cc(O)cc(O)c12`
## Output 4.99

## Input Give recorded pIC50. `O=c1cc(-c2ccccc2)oc2cc(O)c(O)c(O)c12`
## Output 4.15

###

biological target: Xanthine dehydrogenase/oxidase (Homo sapiens, UniProt P47989); assay: Inhibition of xanthine oxidase (unknown origin) assessed as reduction in uric acid formation using xanthine as substrate after 30 mins by UV-Vis spectrophotometric assay
Sequence (P47989 whole entry): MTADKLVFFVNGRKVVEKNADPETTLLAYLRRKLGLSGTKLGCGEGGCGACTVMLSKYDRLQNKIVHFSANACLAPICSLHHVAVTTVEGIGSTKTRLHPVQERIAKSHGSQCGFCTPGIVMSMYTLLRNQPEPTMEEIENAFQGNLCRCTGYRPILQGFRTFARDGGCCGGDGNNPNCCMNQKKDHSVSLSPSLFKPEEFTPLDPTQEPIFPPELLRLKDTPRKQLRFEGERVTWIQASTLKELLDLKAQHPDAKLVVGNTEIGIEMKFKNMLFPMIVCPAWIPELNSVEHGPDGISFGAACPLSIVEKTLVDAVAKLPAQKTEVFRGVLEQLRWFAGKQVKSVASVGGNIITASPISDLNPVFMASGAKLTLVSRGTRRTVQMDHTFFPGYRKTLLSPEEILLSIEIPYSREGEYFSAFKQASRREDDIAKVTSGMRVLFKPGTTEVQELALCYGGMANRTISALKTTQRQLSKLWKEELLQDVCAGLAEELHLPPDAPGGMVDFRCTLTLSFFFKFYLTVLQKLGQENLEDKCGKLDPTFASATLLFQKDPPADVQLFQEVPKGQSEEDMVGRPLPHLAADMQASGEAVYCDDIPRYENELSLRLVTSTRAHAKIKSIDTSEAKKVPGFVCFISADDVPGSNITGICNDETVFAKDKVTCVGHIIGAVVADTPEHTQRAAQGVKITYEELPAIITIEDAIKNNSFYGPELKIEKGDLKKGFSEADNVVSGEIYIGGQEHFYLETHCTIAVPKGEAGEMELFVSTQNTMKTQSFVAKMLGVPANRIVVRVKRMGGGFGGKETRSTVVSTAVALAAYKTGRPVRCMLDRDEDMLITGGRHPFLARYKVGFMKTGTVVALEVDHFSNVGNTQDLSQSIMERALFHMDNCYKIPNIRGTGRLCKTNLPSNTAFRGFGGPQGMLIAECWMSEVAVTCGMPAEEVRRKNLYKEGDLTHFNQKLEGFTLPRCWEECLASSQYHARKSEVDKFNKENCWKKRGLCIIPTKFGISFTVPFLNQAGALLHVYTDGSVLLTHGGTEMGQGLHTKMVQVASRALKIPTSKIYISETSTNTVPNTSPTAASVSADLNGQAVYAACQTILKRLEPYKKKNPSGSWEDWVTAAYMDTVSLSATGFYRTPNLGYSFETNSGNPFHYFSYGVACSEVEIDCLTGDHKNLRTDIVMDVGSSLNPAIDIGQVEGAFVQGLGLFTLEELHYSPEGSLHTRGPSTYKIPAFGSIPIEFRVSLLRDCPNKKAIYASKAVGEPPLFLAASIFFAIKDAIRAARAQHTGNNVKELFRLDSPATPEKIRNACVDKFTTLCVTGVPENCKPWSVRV
So I've got a bunch of molecules here, and I need their pIC50 values.
Just the number, please; pIC50 means minus log10 of the concentration in mol/L.

## Input Give recorded pIC50. O=[N+]([O-])c1cccc(C2Nc3ccccc3-c3cc(-c4ccccc4)nn32)c1 (configuration not stated)
## Output 4.68

## Input Give recorded pIC50. Oc1c(Cl)cc(Cl)cc1C1Nc2ccccc2-c2cc(-c3ccccc3)nn21 (configuration not stated)
## Output 4.96

###

target: Xanthine dehydrogenase/oxidase (Bos taurus); test: Inhibition of bovine milk xanthine oxidase assessed as reduction in uric acid formation using xanthine as substrate preincubated for 5 mins followed by substrate addition by UV-Vis spectrophotometric assay
So I've got a bunch of molecules here, and I need their pIC50 values.
Just the number, please; pIC50 means minus log10 of the concentration in mol/L.

## Input Give recorded pIC50. `Oc1nc(-c2ccccc2)cc(-c2ccccc2)n1`
## Output 4.99

## Input Give recorded pIC50. `O=c1nc(-c2ccncc2)cc(-c2cccs2)[nH]1`
## Output 5.19

## Input Give recorded pIC50. `O=c1nc(-c2ccncc2)cc(-c2cccc3ccccc23)[nH]1`
## Output 4.95

## Input Give recorded pIC50. `O=c1cc(-c2cccnc2)[nH]c2ccccc12`
## Output 5.20

## Input Give recorded pIC50. `O=c1nc(-c2ccc(Cl)cc2)cc(-c2ccc(Cl)cc2)[nH]1`
## Output 4.92

## Input Give recorded pIC50. `O=c1nc(-c2ccncc2)cc(-c2ccco2)[nH]1`
## Output 5.14

###

So I've got a bunch of compounds here, and I need their Ratio IC50 values.
target: Xanthine dehydrogenase/oxidase (Homo sapiens, UniProt P47989); test: Potency index, ratio of allopurinol IC50 to compound IC50 for xanthine oxidase (unknown origin)

## Input Give recorded Ratio IC50. Oc1c(Cl)cc(Cl)cc1C1Nc2ccccc2-c2cc(-c3ccccc3)nn21 (configuration not stated)
## Output 2.89

## Input Give recorded Ratio IC50. `CC(C)=CCc1cc(C(=O)/C=C/c2ccc(O)c(O)c2)c(O)cc1O`
## Output 3.33

## Input Give recorded Ratio IC50. O=C1CC(c2ccc(O)c(-c3c(O)cc(O)c4c3OC(c3ccc(O)cc3)CC4=O)c2)Oc2cc(O)cc(O)c21 (configuration not stated)
## Output 1.09

## Input Give recorded Ratio IC50. O=[N+]([O-])c1cccc(C2Nc3ccccc3-c3cc(-c4ccccc4)nn32)c1 (configuration not stated)
## Output 1.51

## Input Give recorded Ratio IC50. C=CCc1cc(O)c(O)cc1C(C=C)c1ccc(O)c(O)c1 (configuration not stated)
## Output 25.21

## Input Give recorded Ratio IC50. `CC1(C)C=Cc2cc(C(=O)/C=C/c3ccc(O)c(O)c3)c(O)cc2O1`
## Output 1.11

## Input Give recorded Ratio IC50. C=CCc1ccc(O)c(O)c1 [HYDROXYCHAVICOL]
## Output 1.84

###

molecular target: Xanthine dehydrogenase/oxidase (Homo sapiens, UniProt P47989); assay: Inhibition of xanthine oxidase (unknown origin) assessed as reduction in uric acid formation using xanthine as substrate after 4 mins by UV-Vis spectrophotometric assay
Readout Name: pIC50
Just the number, please; pIC50 means minus log10 of the concentration in mol/L.

## Input Give recorded pIC50. C=CCc1ccc(O)c(O)c1 [HYDROXYCHAVICOL]
## Output 4.78

###

So I've got a bunch of compounds here, and I need their Ratio IC50 values.
assay: Potency index, ratio of allopurinol IC50 to compound IC50 for butter milk xanthine oxidase (unknown origin)
Returns: the value as a bare number; no unit string appended.

## Input Give recorded Ratio IC50. `CCCOCCSc1nc2[nH]cnc2c(=O)[nH]1`
## Output 6.27

## Input Give recorded Ratio IC50. `CCCCCCSc1nc2c(=O)[nH]cnc2[nH]1`
## Output 7.5

## Input Give recorded Ratio IC50. `COCCCCSc1nc2[nH]cnc2c(=O)[nH]1`
## Output 150

## Input Give recorded Ratio IC50. `CCCCCOC(=O)C(=O)Nc1[nH]cnc1C(N)=O`
## Output 2.19

## Input Give recorded Ratio IC50. `CCCCCCSc1nc2c(=O)[nH]c(O)nc2[nH]1`
## Output 6.36

## Input Give recorded Ratio IC50. `CCCCSc1nc(O)c2[nH]cnc2n1`
## Output 1.08

## Input Give recorded Ratio IC50. `CCOCCCSc1nc2[nH]cnc2c(=O)[nH]1`
## Output 72.4

## Input Give recorded Ratio IC50. `CCCCCCOC(=O)C(=O)Nc1[nH]cnc1C(N)=O`
## Output 3.78

###

Readout Name: pKi
Just the number, please; pKi means minus log10 of the concentration in mol/L.

## Input # assay system Xanthine dehydrogenase/oxidase (Homo sapiens, UniProt P47989): give pKi of Cc1nc(-c2ccc(OCC(C)C)c(C#N)c2)sc1C(=O)O [FEBUXOSTAT]
## Output 10.00

###

assay: Potency index, ratio of quercetin IC50 to compound IC50 for butter milk xanthine oxidase (unknown origin)
Readout Name: Ratio IC50
Returns: the value as a bare number; no unit string appended.

## Input Give recorded Ratio IC50. `O=c1oc2c(O)ccc(-c3oc4cc(O)cc(O)c4c(=O)c3O)c2s1`
## Output 8

## Input Give recorded Ratio IC50. `O=C(/C=C/c1ccc2c(c1)O[C@@H](c1ccc(O)c(O)c1)[C@@H](C(=O)O)O2)O/C=C\c1ccc(O)c(O)c1`
## Output 1.02

## Input Give recorded Ratio IC50. `O=C(/C=C/c1ccc2c(c1)O[C@H](C(=O)O)[C@H](c1ccc(O)c(O)c1)O2)O/C=C\c1ccc(O)c(O)c1`
## Output 8.83

## Input Give recorded Ratio IC50. `CC(C)(C)c1ccc(-c2cc(=O)c3c(O)cc(O)cc3o2)cc1`
## Output 4.22

## Input Give recorded Ratio IC50. `O=c1cc(-c2ccc(-c3ccccc3)cc2)oc2cc(O)cc(O)c12`
## Output 28.2

###

test: Potency index, ratio of quercetin IC50 to compound IC50 for butter milk xanthine oxidase (unknown origin)
Readout Name: Ratio IC50
Returns: the value as a bare number; no unit string appended.

## Input Give recorded Ratio IC50. `O=C(/C=C/c1ccc2c(c1)O[C@H](c1ccc(O)c(O)c1)[C@@H](C(=O)O)O2)O/C=C\c1ccc(O)c(O)c1`
## Output 2.65

## Input Give recorded Ratio IC50. `COc1ccc(-c2cc(=O)c3c(O)cc(O)cc3o2)cc1`
## Output 1.74

###

assay: Inhibition of butter milk xanthine oxidase (unknown origin) assessed as reduction in uric acid formation using xanthine as substrate by spectrophotometric assay
So I've got a bunch of compounds here, and I need their pIC50 values.
Just the number, please; pIC50 means minus log10 of the concentration in mol/L.

## Input Give recorded pIC50. `O=c1cc(-c2ccc(-c3ccccc3)cc2)oc2cc(O)ccc12`
## Output 6.46

## Input Give recorded pIC50. `O=c1cc(-c2ccc(-c3ccccc3)cc2)oc2cc(O)cc(O)c12`
## Output 7.87

###

Readout Name: Ki (nM)
Quick note: give the figure in nM, leave out the unit.

## Input # assay system Xanthine dehydrogenase/oxidase (Bos taurus): give Ki of N#Cc1cc(-c2n[nH]c(-c3ccncc3)n2)ccn1 [TOPIROXOSTAT]
## Output 5.7

###

assay: Inhibition of butter milk xanthine oxidase (unknown origin) assessed as reduction in uric acid formation using xanthine as substrate by UV-Vis spectrophotometric assay
So I've got a bunch of molecules here, and I need their pIC50 values.
Just the number, please; pIC50 means minus log10 of the concentration in mol/L.

## Input Give recorded pIC50. `CCOCCCSc1nc2[nH]cnc2c(=O)[nH]1`
## Output 7.24

## Input Give recorded pIC50. `COCCCCSc1nc2[nH]cnc2c(=O)[nH]1`
## Output 7.55

## Input Give recorded pIC50. `CCCCSc1nc(O)c2[nH]cnc2n1`
## Output 5.41

## Input Give recorded pIC50. `CCCCCOC(=O)C(=O)Nc1[nH]cnc1C(N)=O`
## Output 5.72

## Input Give recorded pIC50. `CCCCCCSc1nc2c(=O)[nH]cnc2[nH]1`
## Output 6.25

## Input Give recorded pIC50. `CCCCCCOC(=O)C(=O)Nc1[nH]cnc1C(N)=O`
## Output 5.95

## Input Give recorded pIC50. `CCCCCCSc1nc2c(=O)[nH]c(O)nc2[nH]1`
## Output 6.18

## Input Give recorded pIC50. `CCCOCCSc1nc2[nH]cnc2c(=O)[nH]1`
## Output 6.17
